meta.source: patent US20100113276A1

- assay-summary: log P by HPLC on reversed-phase column (C18), EEC Directive 79/831 Annex V.A8
- Type: physicochemical
- condition-description: C18, 40° C., acidic
log p acidic listing for selected molecules.

- molecule: "CCN(C)C=Nc1cc(C)c(-c2ccc(Cl)c(C)c2)cc1C [compound 398]"
  log p acidic: 2.27
- molecule: "CCCN(C)C=Nc1cc(Cl)c(Oc2cc(C(C)C)nn2C)cc1C [compound 603]"
  log p acidic: 1.78
- molecule: "CCN(C)C=Nc1cc(C)c(Oc2nc(C(C)C)ns2)cc1C [compound 547]"
  log p acidic: 1.74
- molecule: "Cc1cc(Oc2cc(F)cc(Br)c2)c(C)cc1N=CN(C)C [compound 1]"
  log p acidic: 2.17
- molecule: "Cc1cc(Oc2cc(C(C)C)nn2C)c(Cl)cc1N=CN1CCCCC1C (stereo not drawn) [compound 606]"
  log p acidic: 1.79
- molecule: "Cc1cc(Oc2ccc(C#N)c(C(F)(F)F)c2)c(C)cc1N=CN1CCCCC1 [compound 228]"
  log p acidic: 1.92

* * *

- assay-summary: log P by HPLC on reversed-phase column (C18), EEC Directive 79/831 Annex V.A8
- Type: physicochemical
- condition-description: C18, 40° C., neutral
log p neutral listing for selected molecules.
parameter-measured: log p neutral

- given-smiles: "CCN(C)C=Nc1cc(Cl)c(Oc2cccc(C(C)(C)C)c2)cc1Cl"
  parameter-measured: "log p neutral"
  value-measured: 5.91
- given-smiles: "Cc1cc(N=CN(C)C)c(Cl)cc1Oc1ccc(Cl)c(C(C)(C)C)c1"
  parameter-measured: "log p neutral"
  value-measured: 6.11
- given-smiles: "Cc1cc(N=CN2CCCCC2)c(Cl)cc1Oc1cccc(Oc2ccccc2)c1"
  parameter-measured: "log p neutral"
  value-measured: 6.03
- given-smiles: "CCN(C)C=Nc1cc(C)c(Oc2ccc(C(C)(C)C)cc2)cc1Cl"
  parameter-measured: "log p neutral"
  value-measured: 5.86
- given-smiles: "CCc1cc(Oc2cc(C)c(N=CN3CCCCC3)cc2Cl)ccc1Cl"
  parameter-measured: "log p neutral"
  value-measured: 6.73
- given-smiles: "CC(C)N(C)C=Nc1cc(Cl)c(Oc2nc(C(C)(C)C)ns2)cc1Cl"
  parameter-measured: "log p neutral"
  value-measured: 5.61
- given-smiles: "CCCN(C)C=Nc1cc(Cl)c(Oc2cc(C(C)C)nn2C)cc1C"
  parameter-measured: "log p neutral"
  value-measured: 4.52
- given-smiles: "Cc1cc(Oc2cc(Cl)cc(Br)c2)c(C)cc1N=CN(C)C(C)C"
  parameter-measured: "log p neutral"
  value-measured: 6.81
- given-smiles: "Cc1cc(N=CN2CCCCC2)c(Cl)cc1Oc1ccc(C(C)(C)C)cc1"
  parameter-measured: "log p neutral"
  value-measured: 6.49

* * *

log p H3PO4 listing for selected compounds.
- assay-summary: log P by HPLC on reversed-phase column (C18), EEC Directive 79/831 Annex V.A8
- Assay type: physicochemical
- condition-description: C18, 40° C., 0.1% aqueous phosphoric acid / acetonitrile

- given-smiles: "FC(F)(F)c1cc(Oc2cc(Cl)c(N=CN3CCCCC3)cc2C(F)(F)F)ccc1Cl"
  log p H3PO4: 3.03
- given-smiles: "CCN(C)C=Nc1cc(C)c(Oc2ccc(Cl)c(C(C)(C)C)c2)cc1Cl"
  log p H3PO4: 2.98
- given-smiles: "Cc1cc(N=CN(C)C(C)C)c(Cl)cc1Oc1ccc(Cl)c(C(C)C)c1"
  log p H3PO4: 3.07
